# measured_target: human Cereblon WT GST-tagged protein (Homo sapiens)
# Construct: purchased CISBIO 64BDCRBNPEH
# measurement_notes: CRBN-binding affinity, HTRF (CEREBLON BINDING kit)
# condition: read-out: Inhibition Rate at 2 µM (%)
Would you kindly list inhibition at 2 µM for each of these compounds?

Guide cases for inhibition at 2 µM, answers given:
O=C1CCC(N2Cc3c(CN4CCN(c5ncnc6sc(-c7ccccc7)cc56)CC4)cccc3C2=S)C(=O)N1 (stereo not shown)
60 to 80%
O=C1CCC(N2Cc3c(CN4CCC(c5cccc(C(F)(F)F)c5)CC4)cccc3C2=S)C(=O)N1 (stereo not shown)
60 to 80%

Would you mind listing inhibition at 2 µM for each of the following compounds?
1. O=C1CCC(N2Cc3cc(CN4CC=C(c5ccnc(F)c5F)CC4)ccc3C2=S)C(=O)N1 (stereo not shown)
2. O=C1CCC(N2Cc3c(CN4C[C@H]5C[C@@H]4CN5C(c4ccccc4)c4ccccc4)cccc3C2=S)C(=O)N1 (stereo partly shown)
3. O=C1CCC(N2Cc3cc(CN4CCN(c5c(F)cncc5Cl)CC4)ccc3C2=S)C(=O)N1 (stereo not shown)
4. O=C1CCC(N2Cc3c(CN4CCN(c5ccnc(Cl)c5Cl)CC4)cccc3C2=S)C(=O)N1 (stereo not shown)
5. O=C1CCC(N2Cc3c(CN4CCN(c5nc(N6CCNCC6)c6sccc6n5)CC4)cccc3C2=S)C(=O)N1 (stereo not shown)

a:
1: 80 to 100%; 2: 80 to 100%; 3: 80 to 100%; 4: 80 to 100%; 5: 80 to 100%

Provide the reported inhibition at 2 µM of each entry below, same order.
1. O=C1CCC(N2Cc3c(CN4CCN(c5ccccn5)CC4)cccc3C2=S)C(=O)N1 (stereo not shown)
2. O=C1CCC(N2Cc3c(CN4CC(n5cnc6cc(F)ccc65)C4)cccc3C2=S)C(=O)N1 (stereo not shown)
3. O=C1CCC(N2Cc3c(CN4CCN(c5ccncc5F)CC4)cccc3C2=S)C(=O)N1 (stereo not shown)
4. O=C1CCC(N2Cc3c(CN4CC(c5ccnc6cc(F)ccc56)C4)cccc3C2=S)C(=O)N1 (stereo not shown)
5. Cc1cc(N2CCN(Cc3cccc4c3CN(C3CCC(=O)NC3=O)C4=S)CC2)ccn1 (stereo not shown)

a:
1: 80 to 100%; 2: 80 to 100%; 3: 80 to 100%; 4: 80 to 100%; 5: 80 to 100%

Please supply inhibition at 2 µM for each of the following items, keeping them in order.
1. O=C1CCC(N2Cc3c(CN4CCC(c5cccc(Cl)c5Cl)CC4)cccc3C2=S)C(=O)N1 (stereo not shown)
2. O=C1CCC(N2Cc3cc(CN4CCN(c5cnnc(Cl)c5Cl)CC4)ccc3C2=S)C(=O)N1 (stereo not shown)
3. Cn1cc(C2CCN(Cc3ccc4c(c3)CN(C3CCC(=O)NC3=O)C4=S)CC2)c2ccc(F)cc21 (stereo not shown)
4. O=C1CCC(N2Cc3cc(CN4CCN(c5ncnc6sc7c(c56)CCCC7)CC4)ccc3C2=S)C(=O)N1 (stereo not shown)

a:
1: 53 to 60%; 2: 80 to 100%; 3: 80 to 100%; 4: 80 to 100%

###

Please respond with reported inhibition at 2 µM for every item in the list.
# measured_target: human Cereblon WT GST-tagged protein (Homo sapiens, UniProt Q96SW2)
# Construct: purchased CISBIO 64BDCRBNPEH
# Sequence (Q96SW2 whole entry): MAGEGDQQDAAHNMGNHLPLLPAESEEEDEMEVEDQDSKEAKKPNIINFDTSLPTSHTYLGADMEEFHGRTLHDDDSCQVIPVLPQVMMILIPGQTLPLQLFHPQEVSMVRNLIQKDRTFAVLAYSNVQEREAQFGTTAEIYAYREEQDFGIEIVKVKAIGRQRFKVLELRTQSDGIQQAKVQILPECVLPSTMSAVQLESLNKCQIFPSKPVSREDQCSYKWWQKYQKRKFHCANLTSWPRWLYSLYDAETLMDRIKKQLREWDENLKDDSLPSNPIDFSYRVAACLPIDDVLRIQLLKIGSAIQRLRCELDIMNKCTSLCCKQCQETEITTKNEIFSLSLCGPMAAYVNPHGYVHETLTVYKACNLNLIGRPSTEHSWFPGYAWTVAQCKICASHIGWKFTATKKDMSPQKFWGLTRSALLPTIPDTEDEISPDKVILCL
# measurement_notes: CRBN-binding affinity, HTRF (CEREBLON BINDING kit)
# condition: read-out: Inhibition Rate at 2 µM (%)
# Description: The CEREBLON BINDING kits (specification: 10,000 tests; product number: Catalog # 64BDCRBNPEH; CISBIO company) was used to determine the CRBN binding ability of the compounds to be tested through a HTRF method (homogeneous time-resolved fluorescence). The specific methods are as follows: • 1. […] Specifically, diluent #9 (1X) solution was used as the diluent, and multiple concentration gradients were set. […] Then, 2.5 µL of human Cereblon WT GST-tagged protein solution was added to each well. […]

// below: answered molecules
O=C1CCC(N2Cc3c(CN4CCN(C(c5ccc(Cl)cc5)c5ccc(Cl)cc5)CC4)cccc3C2=S)C(=O)N1 (stereo not shown)
53 to 60%
O=C1CCC(N2Cc3cc(CN4CC=C(c5cncc(Cl)c5)CC4)ccc3C2=S)C(=O)N1 (stereo not shown)
80 to 100%
O=C1CCC(N2Cc3c(CN4CCN(c5ncccc5Cl)CC4)cccc3C2=S)C(=O)N1 (stereo not shown)
80 to 100%
O=C1CCC(N2Cc3c(CN4CC(C5CCOc6cc(F)ccc65)C4)cccc3C2=S)C(=O)N1 (stereo not shown)
80 to 100%

I'm hoping you can list inhibition at 2 µM for every molecule here, please.
1. O=C1CCC(N2Cc3cc(CN4CCN(c5ccc(F)c(F)c5)CC4)ccc3C2=S)C(=O)N1 (stereo not shown)
2. O=C1CCC(N2Cc3cc(CN4CCN(c5nccc(Cl)c5F)CC4)ccc3C2=S)C(=O)N1 (stereo not shown)
3. O=C1CCC(N2Cc3c(CN4CCN(c5ccc(Cl)c(Cl)c5)CC4)cccc3C2=S)C(=O)N1 (stereo not shown)
4. O=C1CCC(N2Cc3c(CN4CCN(c5ncccc5F)CC4)cccc3C2=S)C(=O)N1 (stereo not shown)
5. O=C1CCC(N2Cc3c(CN4CCN(c5cc(Cl)cc(Cl)c5)CC4)cccc3C2=S)C(=O)N1 (stereo not shown)
6. O=C1CCC(N2Cc3c(CN4CCN(c5cccc6sccc56)CC4)cccc3C2=S)C(=O)N1 (stereo not shown)
7. Cc1nc(N2CCN(Cc3ccc4c(c3)CN(C3CCC(=O)NC3=O)C4=S)CC2)c2c3c(sc2n1)CCCC3 (stereo not shown)

a:
1: 80 to 100%; 2: 80 to 100%; 3: 60 to 80%; 4: 80 to 100%; 5: 60 to 80%; 6: 80 to 100%; 7: 80 to 100%

// input: 3 molecules below; output: inhibition at 2 µM for each
1. O=C1CCC(N2Cc3c(CN4C[C@@H]5C[C@H]4CN5c4cccc(Cl)c4Cl)cccc3C2=S)C(=O)N1 (stereo partly shown)
2. O=C1CCC(N2Cc3c(CN4CC=C(c5cncc(Cl)c5)CC4)cccc3C2=S)C(=O)N1 (stereo not shown)
3. O=C1CCC(N2Cc3cc(CN4CCC(n5cnc6cc(F)ccc65)CC4)ccc3C2=S)C(=O)N1 (stereo not shown)

a:
1. 80 to 100%
2. 80 to 100%
3. 80 to 100%

// for each molecule below, give its inhibition at 2 µM
1. Cc1sc2ncnc(C3=CCN(Cc4ccc5c(c4)CN(C4CCC(=O)NC4=O)C5=S)CC3)c2c1C (stereo not shown)
2. O=C1CCC(N2Cc3cc(CN4CC=C(c5ncnc6sccc56)CC4)ccc3C2=S)C(=O)N1 (stereo not shown)

a:
80 to 100%
80 to 100%

###

# measured_target: human Cereblon WT GST-tagged protein (Homo sapiens)
# Construct: purchased CISBIO 64BDCRBNPEH
# measurement_notes: CRBN-binding affinity, HTRF (CEREBLON BINDING kit)
# condition: read-out: Inhibition Rate at 2 µM (%)
# Experimental: The CEREBLON BINDING kits (specification: 10,000 tests; product number: Catalog # 64BDCRBNPEH; CISBIO company) was used to determine the CRBN binding ability of the compounds to be tested through a HTRF method (homogeneous time-resolved fluorescence). The specific methods are as follows: • 1. […] Specifically, diluent #9 (1X) solution was used as the diluent, and multiple concentration gradients were set. […] Then, 2.5 µL of human Cereblon WT GST-tagged protein solution was added to each well. […]
measured_attribute: inhibition at 2 µM

O=C1CCC(N2Cc3cc(CN4CCC(c5cccc(Br)c5)CC4)ccc3C2=S)C(=O)N1 (stereo not shown) [GT-08617]
80 to 100%
O=C1CCC(N2Cc3c(CN4CCN(C(=O)C5=C(c6ccc(F)cc6)CCCC5)CC4)cccc3C2=S)C(=O)N1 (stereo not shown) [GT-08294]
80 to 100%

Give measured inhibition at 2 µM for every item shown.
1. O=C1CCC(N2Cc3c(CN4CCN(C(c5ccccc5)c5ccccc5)CC4)cccc3C2=S)C(=O)N1 (stereo not shown) [GT-08191]
2. O=C1CCC(N2Cc3cc(CN4CCC(c5ccccc5C(F)(F)F)CC4)ccc3C2=S)C(=O)N1 (stereo not shown) [GT-08622]

a:
["60 to 80%", "80 to 100%"]

###

# Tested on: Human monocytic leukemia cell line: THP-1
# measurement_notes: Tumor cell proliferation inhibition (CellTiter-Meiluncell luminescent cell viability assay)
# condition: THP-1, 96 h, read-out: Inhibition Rate at 10 nM (%)
Assignment: determine reported inhibition at 0.01 µM for the given compounds.

O=C1CCC(N2Cc3cc(CN4CC=C(c5ncnc6sc7c(c56)CCCC7)CC4)ccc3C2=S)C(=O)N1 (centres unmarked)
10 to 20%

I'm hoping you can list inhibition at 0.01 µM for every compound here, please.
1. Cc1cc2c(C3=CCN(Cc4ccc5c(c4)CN(C4CCC(=O)NC4=O)C5=S)CC3)ncnc2s1 (centres unmarked)
2. Cc1nc(C2=CCN(Cc3ccc4c(c3)CN(C3CCC(=O)NC3=O)C4=S)CC2)c2ccsc2n1 (centres unmarked)
3. Cc1sc2ncnc(C3=CCN(Cc4ccc5c(c4)CN(C4CCC(=O)NC4=O)C5=S)CC3)c2c1C (centres unmarked)
4. O=C1CCC(N2Cc3cc(CN4CC=C(c5ncnc6sc(-c7ccccc7)cc56)CC4)ccc3C2=S)C(=O)N1 (centres unmarked)
5. O=C1CCC(N2Cc3cc(CN4CC=C(c5ncnc6sccc56)CC4)ccc3C2=S)C(=O)N1 (centres unmarked)

a:
1: 5 to 10%; 2: 10 to 20%; 3: 10 to 20%; 4: 80 to 100%; 5: 5 to 10%

Parameters: items (list). Returns: inhibition at 0.01 µM for each item.
1. O=C1CCC(N2Cc3cc(CN4CC=C(c5ncnc6sc7c(c56)CCC7)CC4)ccc3C2=S)C(=O)N1 (centres unmarked)
2. O=C1CCC(N2Cc3cc(CN4CC=C(c5ncc6ccsc6n5)CC4)ccc3C2=S)C(=O)N1 (centres unmarked)
3. Nc1cccc2c1CN(C1CCC(=O)NC1=O)C2=O (centres unmarked) [lenalidomide, reference compound]
4. CC(C)c1cc2c(C3=CCN(Cc4ccc5c(c4)CN(C4CCC(=O)NC4=O)C5=S)CC3)ncnc2s1 (centres unmarked)
5. Nc1cccc2c1C(=O)N(C1CCC(=O)NC1=O)C2=O (centres unmarked) [pomalidomide, reference compound]

a:
["5 to 10%", "20 to 30%", "0 to 5%", "80 to 100%", "10 to 20%"]
